Attribution: patent US20140087995A1

- Study System: T1, human calcitonin receptor (human, UniProt P30988 25-474)
- T1 construct: whole, on cells; Used as membranes prepared from the transfected cells (Assay VII); also called hCTR; hCT
- T1 sequence (looked up): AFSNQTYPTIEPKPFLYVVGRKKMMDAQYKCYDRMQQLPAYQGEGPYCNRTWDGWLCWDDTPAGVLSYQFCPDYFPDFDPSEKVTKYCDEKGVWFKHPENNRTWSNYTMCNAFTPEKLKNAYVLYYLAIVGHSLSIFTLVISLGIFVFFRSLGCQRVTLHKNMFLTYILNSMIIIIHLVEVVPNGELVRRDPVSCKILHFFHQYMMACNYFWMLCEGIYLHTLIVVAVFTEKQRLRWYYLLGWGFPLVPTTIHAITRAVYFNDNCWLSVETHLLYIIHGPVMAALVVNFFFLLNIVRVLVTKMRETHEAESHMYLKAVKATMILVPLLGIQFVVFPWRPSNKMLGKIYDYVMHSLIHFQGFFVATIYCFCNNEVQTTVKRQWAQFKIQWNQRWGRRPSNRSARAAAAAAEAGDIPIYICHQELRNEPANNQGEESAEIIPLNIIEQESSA
- Test Name: ratio IC50 human calcitonin receptor / IC50 human amylin receptor (Assays VII and V)
- Method: The resulting pellet was resuspended, homogenized and centrifuged (20.000 rpm, 15 min) in a buffer containing 20 mM Na-HEPES and 0.1 mM EDTA (pH 7.4, buffer 2). The resulting pellet was resuspended in buffer 2 and protein concentration was measured (BCA protein Assay, Pierce). The homogenate was kept cold during the whole procedure. […] Samples were analyzed on TopCounter™ (Packard). The IC₅₀ was calculated using (one site binding competition analysis) GraphPad Prism5 as a measure of receptor affinity. […]
Numbered stars: 1 amine (or outer) side, 2 acyl side, 3 side chain; on linkers, the order of the positions; unused ones are H or OH. Bridge positions count the residues as written; N and C are the ends. Side chains are listed from the residue outwards. Ends that are not written are not given here. * marks the point of attachment. C20 diacid = O=C(O)CCCCCCCCCCCCCCCCCCC(=O)*; γGlu = O=C(O)[C@H](CCC(=O)[*:2])N[*:1]
Reported Property: Ratio hCT/hAmylin binding

Some binders with known Ratio hCT/hAmylin binding results, for comparison:
Binder	Experimental Result
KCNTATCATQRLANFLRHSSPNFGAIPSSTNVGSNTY (C20 diacid-gGlu-2xOEG acylated on the alpha amino group of the N-terminal residue (Lys 1); disulfide Cys2-Cys7; C-terminal amide, Derivative of human amylin; also called compound 24)	90
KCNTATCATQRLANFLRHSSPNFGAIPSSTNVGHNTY (C20 diacid-gGlu acylated on the alpha amino group of the N-terminal residue (Lys 1); disulfide Cys2-Cys7; C-terminal amide, Derivative of human amylin; also called compound 40) [N^α1-[(4S)-4-carboxy-4-(19-carboxynonadecanoylamino)butanoyl]-[Arg17,Pro21,Pro27,His34]-h-amylin]	31.1
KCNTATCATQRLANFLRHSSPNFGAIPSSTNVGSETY (C20 diacid-gGlu acylated on the alpha amino group of the N-terminal residue (Lys 1); disulfide Cys2-Cys7; C-terminal amide, Derivative of human amylin; also called compound 23) [N^α1-[(4S)-4-carboxy-4-(19-carboxynonadecanoylamino)butanoyl]-[Arg17,Pro21,Pro27,Glu35]-h-amylin]	25

1: K([γGlu-γGlu-C20 diacid])CNTATCATQRLAEFLRHSSPNFGAIPSSTNVGSNTP-NH2 (disulfide 2-7 (inferred), Derivative of human amylin; also called compound 13)
2: {C20 diacid-γGlu}-KCNTATCATQRLAEFLRHSSPNFGAIPSSTNVGSNTP-NH2 (disulfide 2-7, Derivative of human amylin; also called compound 8)
Compare 1 and 2 by numeric Ratio hCT/hAmylin binding and name the larger one. To answer, give the label that identifies your chosen option.
1
(1: 1.2, 2: 0.5)
